target: human TLR8 (Homo sapiens, UniProt Q9NR97); test: HEK293-Blue-hTLR-8 cells assay (SEAP reporter, R848 stimulation); details: HEK293-Blue-hTLR8 cells, R848 ligand, 20 hrs; read-out: HEK/hTLR8 IC50
Sequence (Q9NR97 27-1041): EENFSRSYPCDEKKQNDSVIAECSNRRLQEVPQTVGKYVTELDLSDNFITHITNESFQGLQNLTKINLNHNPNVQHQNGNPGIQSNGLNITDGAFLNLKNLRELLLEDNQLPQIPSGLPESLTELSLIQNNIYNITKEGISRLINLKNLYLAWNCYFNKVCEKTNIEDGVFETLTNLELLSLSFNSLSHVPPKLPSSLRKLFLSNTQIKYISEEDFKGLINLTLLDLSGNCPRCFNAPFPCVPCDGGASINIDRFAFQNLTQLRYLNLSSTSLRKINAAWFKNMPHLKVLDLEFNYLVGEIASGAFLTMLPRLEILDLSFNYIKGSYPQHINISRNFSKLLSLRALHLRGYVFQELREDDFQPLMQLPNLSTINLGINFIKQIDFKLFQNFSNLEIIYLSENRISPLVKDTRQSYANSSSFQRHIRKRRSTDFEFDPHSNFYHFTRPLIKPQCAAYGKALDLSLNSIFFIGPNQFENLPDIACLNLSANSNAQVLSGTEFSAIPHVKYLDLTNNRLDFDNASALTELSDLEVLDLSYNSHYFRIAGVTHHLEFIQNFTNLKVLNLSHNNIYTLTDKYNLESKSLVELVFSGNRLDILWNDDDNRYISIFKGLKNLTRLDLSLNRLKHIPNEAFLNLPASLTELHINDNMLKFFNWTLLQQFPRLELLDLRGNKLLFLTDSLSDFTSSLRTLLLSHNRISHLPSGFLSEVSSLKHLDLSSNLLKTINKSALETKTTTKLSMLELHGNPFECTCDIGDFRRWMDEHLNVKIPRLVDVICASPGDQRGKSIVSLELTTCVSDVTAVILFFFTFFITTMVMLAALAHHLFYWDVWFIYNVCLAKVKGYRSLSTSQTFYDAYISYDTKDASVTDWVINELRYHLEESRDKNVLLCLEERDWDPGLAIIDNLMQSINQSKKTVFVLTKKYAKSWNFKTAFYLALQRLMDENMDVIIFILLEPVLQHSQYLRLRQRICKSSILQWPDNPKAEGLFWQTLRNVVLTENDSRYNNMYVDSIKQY
IC50 less than 30 nM is MET; IC50 greater than or equal to 30 nM is NOT MET.

Enquiry: Hello, is IC50 of the following compound strictly smaller than 30 nM? CO[C@@H]1CN(c2cnc(CN3CC[C@H]4CN(c5ccc(C#N)n6nccc56)C[C@@H](C)N4CC3)c(F)c2)C[C@H]1N [Example 26]
Return: NOT MET

Enquiry: Hello, is IC50 of the following compound strictly smaller than 30 nM? CO[C@@H]1CN(c2cnc(CN3CC[C@H]4CN(c5ccc(C#N)c6ncccc56)C[C@@H](C)N4CC3)c(F)c2)C[C@H]1N [Example 24]
Return: MET

Enquiry: Hello, is IC50 of the following compound strictly smaller than 30 nM? C[C@@H]1CN(c2ccc(C#N)c3ncccc23)C[C@@H]2CCN(c3ccc4c(n3)CCNC4)CCN21 [Example 6]
Return: MET

----------
biological target: hERG channel (Homo sapiens); construct: expressed in transfected cells; assay: hERG channel inhibition assay (patch-clamp, CHO hERG cells); type: cell-based; details: whole-cell patch-clamp
Sequence (Q12809 whole entry): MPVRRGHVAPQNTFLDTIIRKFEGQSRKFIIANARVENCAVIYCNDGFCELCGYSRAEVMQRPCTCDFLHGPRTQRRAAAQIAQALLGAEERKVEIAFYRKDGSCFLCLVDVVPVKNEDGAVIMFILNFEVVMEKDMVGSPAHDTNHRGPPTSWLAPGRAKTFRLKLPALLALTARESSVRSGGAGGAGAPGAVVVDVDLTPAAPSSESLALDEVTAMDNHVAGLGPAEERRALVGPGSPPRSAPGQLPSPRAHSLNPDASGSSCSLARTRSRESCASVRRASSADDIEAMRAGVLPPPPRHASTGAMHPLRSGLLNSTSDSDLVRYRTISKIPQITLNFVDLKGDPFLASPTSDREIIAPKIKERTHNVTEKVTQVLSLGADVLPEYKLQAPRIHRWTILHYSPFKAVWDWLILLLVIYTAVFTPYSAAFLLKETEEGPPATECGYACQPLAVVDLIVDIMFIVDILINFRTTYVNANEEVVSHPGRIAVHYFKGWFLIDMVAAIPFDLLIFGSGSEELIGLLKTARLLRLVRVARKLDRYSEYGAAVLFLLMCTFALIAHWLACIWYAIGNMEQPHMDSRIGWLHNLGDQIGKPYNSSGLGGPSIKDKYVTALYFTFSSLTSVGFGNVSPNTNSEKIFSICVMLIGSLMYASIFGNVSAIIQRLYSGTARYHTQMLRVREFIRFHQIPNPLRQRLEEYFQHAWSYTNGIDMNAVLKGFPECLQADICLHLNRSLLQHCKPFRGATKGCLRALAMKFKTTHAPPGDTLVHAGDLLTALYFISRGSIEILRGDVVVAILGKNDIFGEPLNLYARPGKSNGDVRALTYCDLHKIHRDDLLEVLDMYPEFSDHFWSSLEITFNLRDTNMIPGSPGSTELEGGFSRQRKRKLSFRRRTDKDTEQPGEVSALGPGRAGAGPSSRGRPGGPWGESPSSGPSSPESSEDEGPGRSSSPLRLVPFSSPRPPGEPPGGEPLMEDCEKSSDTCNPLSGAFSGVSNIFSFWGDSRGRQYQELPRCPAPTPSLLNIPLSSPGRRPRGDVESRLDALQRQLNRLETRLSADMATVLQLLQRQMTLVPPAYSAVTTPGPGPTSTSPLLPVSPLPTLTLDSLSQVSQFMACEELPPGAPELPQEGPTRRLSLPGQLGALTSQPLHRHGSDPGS
pIC50: −log10 of the molar value.
measured-quantity: pIC50

Known results for molecules:
C[C@@H]1CN(c2ccc(C#N)c3ncccc23)C[C@@H]2CCN(c3cc4c(cn3)CNCC4)CCN21 [Example 7]; < 4.70
C[C@@H]1CN(c2ccc(C#N)c3ncccc23)C[C@@H]2CCN(Cc3cnc4c(c3)CNCC4)CCN21 [Example 10]; < 4.70

Here is another molecule to look at.
Enquiry: Find the recorded pIC50 belonging to C[C@@H]1CN(c2ccc(C#N)c3ncccc23)C[C@@H]2CCN(Cc3cnc(N4CCNCC4)cn3)CCN21 [Example 15] and report it.
Return: < 4.70

----------
Target: human TLR9 (Homo sapiens)
Sequence (Q9NR96 26-1032): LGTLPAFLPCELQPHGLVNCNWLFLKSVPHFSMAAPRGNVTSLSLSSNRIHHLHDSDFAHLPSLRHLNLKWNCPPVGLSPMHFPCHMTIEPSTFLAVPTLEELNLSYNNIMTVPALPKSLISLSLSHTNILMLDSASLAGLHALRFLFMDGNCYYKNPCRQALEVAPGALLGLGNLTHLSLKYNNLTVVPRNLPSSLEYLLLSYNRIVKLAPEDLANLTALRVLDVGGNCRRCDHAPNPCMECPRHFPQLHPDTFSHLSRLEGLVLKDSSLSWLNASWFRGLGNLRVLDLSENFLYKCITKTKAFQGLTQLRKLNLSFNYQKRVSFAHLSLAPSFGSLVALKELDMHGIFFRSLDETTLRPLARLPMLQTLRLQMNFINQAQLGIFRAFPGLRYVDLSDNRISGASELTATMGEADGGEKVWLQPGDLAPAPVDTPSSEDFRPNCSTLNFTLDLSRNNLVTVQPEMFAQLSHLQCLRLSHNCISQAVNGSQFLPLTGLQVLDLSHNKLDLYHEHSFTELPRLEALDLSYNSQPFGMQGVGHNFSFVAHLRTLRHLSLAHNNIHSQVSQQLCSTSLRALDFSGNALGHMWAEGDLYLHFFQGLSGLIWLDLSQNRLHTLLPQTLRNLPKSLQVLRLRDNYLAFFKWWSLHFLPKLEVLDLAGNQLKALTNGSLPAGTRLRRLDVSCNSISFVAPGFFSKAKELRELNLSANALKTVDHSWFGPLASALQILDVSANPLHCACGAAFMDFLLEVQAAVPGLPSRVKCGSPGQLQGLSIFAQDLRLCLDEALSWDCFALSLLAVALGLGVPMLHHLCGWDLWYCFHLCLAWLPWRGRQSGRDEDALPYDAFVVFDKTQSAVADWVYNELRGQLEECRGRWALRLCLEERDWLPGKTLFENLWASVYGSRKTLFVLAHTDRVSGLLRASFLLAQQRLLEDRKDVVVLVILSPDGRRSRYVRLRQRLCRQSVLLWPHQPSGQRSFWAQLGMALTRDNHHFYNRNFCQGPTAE
Test: HEK293-Blue-hTLR-9 cells assay (SEAP reporter, ODN2006 stimulation)
Conditions: HEK293-Blue-hTLR9 cells, ODN2006 ligand, 20 hrs; read-out: HEK/hTLR9 IC50
IC50 less than 60 nM is criterion met; IC50 greater than or equal to 60 nM is criterion not met.

See these solved cases before continuing.
C[C@@H]1CN(c2ccc(C#N)c3ncccc23)C[C@@H]2CCN(Cc3ccc(N4C[C@@H](N)[C@@H](F)C4)cn3)CCN21; criterion met
C[C@@H]1CN(c2ccc(C#N)c3ncccc23)C[C@@H]2CCN(Cc3cc4c(cn3)CNCC4)CCN21; criterion not met
CO[C@@H]1CN(c2ccc(CN3CC[C@H]4CN(c5ccc(C#N)c6ncccc56)C[C@@H](C)N4CC3)nc2)C[C@H]1N; criterion not met
C[C@@H]1CN(c2ccc(C#N)c3ncccc23)C[C@@H]2CCN(Cc3cc4c(cn3)CCNC4)CCN21; criterion met
C[C@@H]1CN(c2ccc(C#N)c3ncccc23)C[C@@H]2CCN(Cc3cncc(N4CCNCC4)c3)CCN21; criterion met

Enquiry: Hello, is IC50 of the following compound strictly smaller than 60 nM? CO[C@@H]1CN(c2cnc(CN3CC[C@H]4CN(c5ccc(C#N)n6nccc56)C[C@@H](C)N4CC3)c(F)c2)C[C@H]1N
Return: criterion not met

----------
Below, each entry is listed alongside its reported IC50.
target: UniProt:Q9NR97; experiment: HEK293-Blue-hTLR-8 cells assay (SEAP reporter, R848 stimulation); conditions: HEK293-Blue-hTLR8 cells, R848 ligand, 20 hrs; read-out: HEK/hTLR8 IC50
The response must be a number in nM with no trailing unit.

Known results for compounds:
C[C@@H]1CN(c2ccc(C#N)c3ncccc23)C[C@@H]2CCN(Cc3ccc(N4CCNCC4)cn3)CCN21; 10.2
C[C@@H]1CN(c2ccc(C#N)c3ncccc23)C[C@@H]2CCN(Cc3cc4c(cn3)CNCC4)CCN21; 8.6
C[C@@H]1CN(c2ccc(C#N)c3ncccc23)C[C@@H]2CCN(Cc3ncc(N4CCNCC4)cc3F)CCN21; 8.3

Here is another compound to look at.
Enquiry: What IC50 appears in the records for this compound with UniProt:Q9NR97? C[C@@H]1CN(c2ccc(C#N)c3ncccc23)C[C@@H]2CCN(c3cc4c(cn3)CNCC4)CCN21
Return: 1.5

----------
Molecular target: UniProtKB Q9NR97
Assay: HEK293-Blue-hTLR-8 cells assay (SEAP reporter, R848 stimulation)
Settings: HEK293-Blue-hTLR8 cells, R848 ligand, 20 hrs; read-out: HEK/hTLR8 IC50
Description: The following tests were carried out in order to determine the activity of the compounds of formula (I), (Ia) or (Ib) in HEK293-Blue-hTLR-7/8/9 cells assay. HEK293-Blue-hTLR-8 Cells Assay: A stable HEK293-Blue-hTLR-8 cell line was purchased from InvivoGen (Cat. #: hkb-htlr8, San Diego, California, USA). These cells were originally designed for studying the stimulation of human TLR8 by monitoring the activation of NF-κB. […]
IC50 less than 5 nM is 1; IC50 greater than or equal to 5 nM is 0.

C[C@@H]1CN(c2ccc(C#N)c3ncccc23)C[C@@H]2CCN(Cc3ncc(N4CCNCC4)cn3)CCN21; 0

Enquiry: Hello, is IC50 of the following compound strictly smaller than 5 nM? C[C@@H]1CN(c2ccc(C#N)c3ncccc23)C[C@@H]2CCN(c3ccc([C@H]4CNCCO4)cc3)CCN21
Return: 1

Enquiry: Hello, is IC50 of the following compound strictly smaller than 5 nM? C[C@@H]1CN(c2ccc(C#N)c3ncccc23)C[C@@H]2CCN(Cc3cccc(N4CCNCC4)n3)CCN21
Return: 0

Enquiry: Hello, is IC50 of the following compound strictly smaller than 5 nM? C[C@@H]1CN(c2ccc(C#N)c3ncccc23)C[C@@H]2CCN(Cc3ccc(N4C[C@@H](N)[C@@H](F)C4)cn3)CCN21
Return: 0

Enquiry: Hello, is IC50 of the following compound strictly smaller than 5 nM? CO[C@@H]1CN(c2cnc(CN3CC[C@H]4CN(c5ccc(C#N)n6ncc(F)c56)C[C@@H](C)N4CC3)c(F)c2)C[C@H]1N
Return: 0

Enquiry: Hello, is IC50 of the following compound strictly smaller than 5 nM? C[C@@H]1CN(c2ccc(C#N)c3ncccc23)C[C@@H]2CCN(Cc3ccc4c(c3)CCNC4)CCN21
Return: 1

Enquiry: Hello, is IC50 of the following compound strictly smaller than 5 nM? C[C@@H]1CN(c2ccc(C#N)c3ncccc23)C[C@@H]2CCN(c3ccc4c(n3)CNCC4)CCN21
Return: 1

Enquiry: Hello, is IC50 of the following compound strictly smaller than 5 nM? CO[C@@H]1CN(c2ccc(CN3CC[C@H]4CN(c5ccc(C#N)c6ncccc56)C[C@@H](C)N4CC3)nc2)C[C@H]1N
Return: 0
